test.target: T1, gp130 on HepG2 B6 cells (UniProt P40189 23-918, limits assumed)
T1 sequence (looked up): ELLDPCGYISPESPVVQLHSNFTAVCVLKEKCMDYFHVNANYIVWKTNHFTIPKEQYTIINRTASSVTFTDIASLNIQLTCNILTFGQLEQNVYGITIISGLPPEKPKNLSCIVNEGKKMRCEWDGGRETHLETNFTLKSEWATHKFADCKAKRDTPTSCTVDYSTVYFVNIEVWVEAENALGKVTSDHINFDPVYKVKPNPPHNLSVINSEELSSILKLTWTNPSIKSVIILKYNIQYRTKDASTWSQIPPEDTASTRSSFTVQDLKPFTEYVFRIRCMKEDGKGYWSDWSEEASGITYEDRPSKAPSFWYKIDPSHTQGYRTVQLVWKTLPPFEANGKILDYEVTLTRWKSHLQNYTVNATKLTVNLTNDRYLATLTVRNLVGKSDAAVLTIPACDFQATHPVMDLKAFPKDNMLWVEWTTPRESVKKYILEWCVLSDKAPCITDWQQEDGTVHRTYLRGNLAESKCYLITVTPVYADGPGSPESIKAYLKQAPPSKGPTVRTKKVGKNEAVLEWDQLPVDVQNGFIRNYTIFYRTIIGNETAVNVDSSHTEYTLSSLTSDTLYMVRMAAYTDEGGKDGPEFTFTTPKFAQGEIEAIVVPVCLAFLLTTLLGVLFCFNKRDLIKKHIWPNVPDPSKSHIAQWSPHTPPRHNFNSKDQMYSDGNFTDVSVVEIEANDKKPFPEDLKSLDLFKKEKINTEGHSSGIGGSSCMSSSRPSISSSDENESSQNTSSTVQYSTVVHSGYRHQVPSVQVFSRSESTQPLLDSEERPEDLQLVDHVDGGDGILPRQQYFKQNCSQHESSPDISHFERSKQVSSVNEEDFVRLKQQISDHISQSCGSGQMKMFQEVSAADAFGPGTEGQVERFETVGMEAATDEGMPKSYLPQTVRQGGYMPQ
assay.summary: cell-based or functional assay
readout.name: sPAP HepG2 B6 assay: Expt 2 EC50

Reported sPAP HepG2 B6 assay: Expt 2 EC50 for OSM-GST mutant Q25A (ligand, not shown: a dimerising Fc or GST; large carriers; small tags and cut ends, Alanine mutant of m4; also called (26)Q25A; 26 Q25A) AAIGSCSKEYRVLLGQLQKQTDLMADTSRLLDPYIRIQGLDVPKLREHCRERPGAFPSEETLRGLGRRGFLQTLNATLGCVLHRLADLEQRLPKAQDLERSGLNIEDLEKLQMARPNILGLRNNIYCMAQLLDNSDTAEPTKAGRGASQPPTPTPASDAFQRKLEGCRFLHGYHRFMHSVGRVFSKWGESPNRSRR : what is it?
0.013 µg/mL
